system: PLK1; conditions: concentration: 1 μM,replicates: in singlicate; n = 1;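 also: KINOMEscan kinase panel screen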
attributeMeasured: %Inh
Report field: quantity (unit follows the number).

# %Inh lookup, item Nc1nc(Nc2ccccc2)cc(-c2ccc3c(N)n[nH]c3c2)n1
0%

# %Inh lookup, item CNC(=O)c1ccccc1Sc1ccc2c(/C=C/c3ccccn3)n[nH]c2c1
0%

# %Inh lookup, item Cc1occc1-c1nc(N)c(OC[C@@H](N)Cc2c[nH]c3ccccc23)cc1-c1cc2c(C)n[nH]c2cn1
57%

# %Inh lookup, item CCN(CC)CCOc1ccc(Nc2ncc3cc(-c4c(Cl)cccc4Cl)c(=O)n(C)c3n2)cc1
26%

# %Inh lookup, item O=C(NCCCN1CCOC1=O)c1cnc(NCc2cc(Cl)ccc2Cl)nc1NC1CCCC1
0%

# %Inh lookup, item Cl.Cl.NC[C@H](CC1CCCCC1)NC(=O)c1cc(Br)c(-c2ccnc3[nH]ccc23)s1
0%

# %Inh lookup, item O=C(NCCNc1ccnc(NCc2ccc(F)cc2)n1)c1cc2ccccc2s1
0%

# %Inh lookup, item C=CC(=O)Nc1cc2c(Nc3ccc(F)c(Cl)c3)ncnc2cc1OCCCN1CCOCC1
0%

# %Inh lookup, item Cc1cc2cn[nH]c2cc1-c1cccc2c(N)c(C(N)=O)nnc12
15%

# %Inh lookup, item C[C@@H](Oc1cc(-c2cnn(C3CCNCC3)c2)cnc1N)c1c(Cl)ccc(F)c1Cl
0%

# %Inh lookup, item Cc1ccc2c(-c3ccncc3)c(-c3ccc(F)cc3)nn2c1.Cl
0%

# %Inh lookup, item C[C@H]1Oc2cc(cnc2N)-c2c(nn(C)c2C#N)CN(C)C(=O)c2ccc(F)cc21
0%

# %Inh lookup, item CC(C)N1C(=O)Cc2cc(Nc3ncc(C(F)(F)F)c(NCc4cccc(S(C)(=O)=O)c4)n3)ccc21
28%
